- Tested on: Streptomyces viridochromogenes
- Assay remarks: Antibacterial activity against Streptomyces viridochromogenes by agar diffusion method
- Assay type: functional, organism-based
Activity calls are given as the source filed them. The calls are words filed in the database; no cut-off is given here.

# Molecule, Activity
records = [
    ("c1ccc2c(C(c3c[nH]c4ccccc34)c3c[nH]c4ccccc34)c[nH]c2c1", "inactive"),
    ("c1ccc2c(Cc3c[nH]c4ccccc34)c[nH]c2c1", "inactive"),
    ("CC(=O)C(C)(c1c[nH]c2ccccc12)c1c[nH]c2ccccc12", "inactive"),
    ("CC(CC(c1c[nH]c2ccccc12)c1c[nH]c2ccccc12)c1c[nH]c2ccccc12 (centres undefined)", "inactive"),
]

Just for reference, ChEMBL document CHEMBL1138433 is where these values come from.
